Data provenance is paper PMC5207038.

- tgt: A2BAR (Homo sapiens)
- Sequence (P29275 whole entry): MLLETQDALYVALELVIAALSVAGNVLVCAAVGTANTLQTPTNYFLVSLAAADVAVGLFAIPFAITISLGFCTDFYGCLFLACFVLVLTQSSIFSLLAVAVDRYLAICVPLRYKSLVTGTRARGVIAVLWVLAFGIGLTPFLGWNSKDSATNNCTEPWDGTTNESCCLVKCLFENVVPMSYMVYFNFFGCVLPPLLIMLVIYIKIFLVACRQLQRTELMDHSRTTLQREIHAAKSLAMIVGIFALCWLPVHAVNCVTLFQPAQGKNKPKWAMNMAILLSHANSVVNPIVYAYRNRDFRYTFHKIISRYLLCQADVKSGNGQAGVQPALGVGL
- test_summary: Functional assay for the A2BAR in CHO cells
reported_property: EC50 (nM)
One number for each entry, in nM.

compound	tgt	reported_property	meas_value
Nc1nc(=O)[nH]c2c1ncn2[C@@H]1O[C@H](CO)[C@@H](O)[C@H]1O [Compound 9, isoguanosine]	A2BAR (Homo sapiens)	EC50	3100

# ---- query compound ----
So, Nc1ccnc2c1ncn2[C@@H]1O[C@H](CO)[C@@H](O)[C@H]1O [Compound 5, 1-deazaadenosine] ? Its EC50 was 1500
